I'd be grateful if you could share measured GI50 for these entries.
System: ACHN
protocol text: cells
measurement context: Homo sapiens, 48 h

Query: Answer briefly: GI50 recorded on ACHN for Cc1ccc(/C=C/C(=O)c2ccc(S(=O)(=O)NCCNc3nc(Nc4ccc(F)cc4)nc(N(C)C)n3)cc2)cc1 [24b]
Reply: 6.31 µM

Query: Answer briefly: GI50 recorded on ACHN for CN(C)c1nc(NCCNS(=O)(=O)c2ccc(C(=O)/C=C/c3ccc(Cl)cc3)cc2)nc(Nc2ccc(F)cc2)n1 [24e]
Reply: 4.2 µM

Query: Answer briefly: GI50 recorded on ACHN for COc1cc(/C=C/C(=O)c2ccc(S(=O)(=O)NCCNc3nc(Nc4ccc(F)cc4)nc(N(C)C)n3)cc2)cc(OC)c1OC [24d]
Reply: 5.13 µM

Query: Answer briefly: GI50 recorded on ACHN for CN(C)c1nc(NCCNS(=O)(=O)c2ccc(C(=O)/C=C/c3ccc(F)cc3)cc2)nc(N2CCOCC2)n1 [23f]
Reply: 13.1 µM

Query: Answer briefly: GI50 recorded on ACHN for CN(C)c1nc(NCCNS(=O)(=O)c2ccc(C(=O)/C=C/c3ccccc3)cc2)nc(Nc2ccc(F)cc2)n1 [24a]
Reply: 4.92 µM

Query: Answer briefly: GI50 recorded on ACHN for CN(C)c1nc(NCCNS(=O)(=O)c2ccc(C(=O)/C=C/c3ccc(C(F)(F)F)cc3)cc2)nc(Nc2ccc(F)cc2)n1 [24g]
Reply: 5.08 µM

Query: Answer briefly: GI50 recorded on ACHN for Nc1nc(N)c2c(n1)NC(c1ccc(C(F)(F)F)cc1)CC(c1ccc(Nc3nc(NCCO)nc(Nc4ccc(Cl)cc4)n3)cc1)=N2 (stereo not drawn) [33g]
Reply: 1.5 µM

Query: Answer briefly: GI50 recorded on ACHN for CN(C)c1nc(NCCNS(=O)(=O)c2ccc(C3=Nc4c(N)nc(N)nc4NC(c4ccc(Cl)cc4)C3)cc2)nc(Nc2ccc(F)cc2)n1 (stereo not drawn) [31e]
Reply: > 100 µM

Query: Answer briefly: GI50 recorded on ACHN for CN(C)c1nc(NCCNS(=O)(=O)c2ccc(C3=Nc4c(N)nc(N)nc4NC(c4ccc(F)cc4)C3)cc2)nc(Nc2ccc(F)cc2)n1 (stereo not drawn) [31f]
Reply: > 100 µM

Query: Answer briefly: GI50 recorded on ACHN for CN(C)c1nc(NCCNS(=O)(=O)c2ccc(C(=O)/C=C/c3ccc(F)cc3)cc2)nc(Nc2ccc(F)cc2)n1 [24f]
Reply: 3.13 µM

Query: Answer briefly: GI50 recorded on ACHN for CN(C)c1nc(NCCNS(=O)(=O)c2ccc(C3=Nc4c(N)nc(N)nc4NC(c4ccc(C(F)(F)F)cc4)C3)cc2)nc(N2CCOCC2)n1 (stereo not drawn) [30g]
Reply: 64.4 µM

Query: Answer briefly: GI50 recorded on ACHN for COc1cc(C2CC(c3ccc(Cl)cc3)=Nc3c(N)nc(N)nc3N2)ccc1Oc1nc(Nc2ccc(F)cc2)nc(N(C)C)n1 (stereo not drawn) [29e]
Reply: > 100 µM

Query: Answer briefly: GI50 recorded on ACHN for COc1ccc(/C=C/C(=O)c2ccc(S(=O)(=O)NCCNc3nc(Nc4ccc(F)cc4)nc(N(C)C)n3)cc2)cc1 [24c]
Reply: 3.4 µM

Query: Answer briefly: GI50 recorded on ACHN for CN(C)c1nc(NCCNS(=O)(=O)c2ccc(C(=O)/C=C/c3ccccc3)cc2)nc(N2CCOCC2)n1 [23a]
Reply: 18.2 µM

Query: Answer briefly: GI50 recorded on ACHN for CN(C)c1nc(NCCNS(=O)(=O)c2ccc(C(=O)/C=C/c3ccc(Cl)cc3)cc2)nc(N2CCOCC2)n1 [23e]
Reply: 13.5 µM

Query: Answer briefly: GI50 recorded on ACHN for COc1cc(/C=C/C(=O)c2ccc(C)cc2)ccc1Oc1nc(Nc2ccc(F)cc2)nc(N(C)C)n1 [21b]
Reply: 9.58 µM

Query: Answer briefly: GI50 recorded on ACHN for COc1cc(/C=C/C(=O)c2ccc(C)cc2)ccc1Oc1nc(NCCO)nc(N2CCOCC2)n1 [20b]
Reply: 1.94 µM

Query: Answer briefly: GI50 recorded on ACHN for Nc1nc(N)c2c(n1)NC(c1ccccc1)CC(c1ccc(Nc3nc(NCCO)nc(Nc4ccc(Cl)cc4)n3)cc1)=N2 (stereo not drawn) [33a]
Reply: 1.95 µM

Query: Answer briefly: GI50 recorded on ACHN for COc1cc(/C=C/C(=O)c2ccc(S(=O)(=O)NCCNc3nc(N(C)C)nc(N4CCOCC4)n3)cc2)cc(OC)c1OC [23d]
Reply: 1.78 µM

Query: Answer briefly: GI50 recorded on ACHN for Cc1ccc(C2CC(c3ccc(Nc4nc(NCCO)nc(Nc5ccc(Cl)cc5)n4)cc3)=Nc3c(N)nc(N)nc3N2)cc1 (stereo not drawn) [33b]
Reply: 1.72 µM

Query: Answer briefly: GI50 recorded on ACHN for COc1cc(/C=C/C(=O)c2cc(OC)c(OC)c(OC)c2)ccc1Oc1nc(Nc2ccc(F)cc2)nc(N(C)C)n1 [21d]
Reply: 2.3 µM

* * *

Test system: NCI-H226
protocol text: cells
measurement context: Homo sapiens, NCI-H226, 48 h, read-out: LC50
I'd be grateful if you could share measured CC50 for these entries.
Report as a plain number; the unit µM is understood.

Query: Name the recorded CC50 of the compound listed here: CN(C)c1nc(NCCNS(=O)(=O)c2ccc(C(=O)/C=C/c3ccc(Cl)cc3)cc2)nc(Nc2ccc(F)cc2)n1 [24e]
Reply: 24.3

Query: Name the recorded CC50 of the compound listed here: CN(C)c1nc(NCCNS(=O)(=O)c2ccc(C(=O)/C=C/c3ccc(C(F)(F)F)cc3)cc2)nc(Nc2ccc(F)cc2)n1 [24g]
Reply: 24.7

* * *

I'd be grateful if you could share measured log10(GI50) for these entries.
Answers are given as log10 of GI50 in µM.

Query: Answer briefly: log10(GI50) recorded on UACC-257 for Nc1nc(N)c2c(n1)NC(c1ccc(C(F)(F)F)cc1)CC(c1ccc(Nc3nc(NCCO)nc(Nc4ccc(Cl)cc4)n3)cc1)=N2 (centres unmarked) [33g]
Reply: 0.24

Query: Answer briefly: log10(GI50) recorded on UACC-257 for Nc1nc(N)c2c(n1)NC(c1ccccc1)CC(c1ccc(Nc3nc(NCCO)nc(Nc4ccc(Cl)cc4)n3)cc1)=N2 (centres unmarked) [33a]
Reply: 0.28

Query: Answer briefly: log10(GI50) recorded on UACC-257 for COc1ccc(/C=C/C(=O)c2ccc(S(=O)(=O)NCCNc3nc(Nc4ccc(F)cc4)nc(N(C)C)n3)cc2)cc1 [24c]
Reply: 1.12

Query: Answer briefly: log10(GI50) recorded on UACC-257 for COc1cc(/C=C/C(=O)c2cc(OC)c(OC)c(OC)c2)ccc1Oc1nc(NCCO)nc(N2CCOCC2)n1 [20d]
Reply: 0.45

Query: Answer briefly: log10(GI50) recorded on UACC-257 for CN(C)c1nc(NCCNS(=O)(=O)c2ccc(C(=O)/C=C/c3ccc(Cl)cc3)cc2)nc(N2CCOCC2)n1 [23e]
Reply: 1.21

Query: Answer briefly: log10(GI50) recorded on UACC-257 for CN(C)c1nc(NCCNS(=O)(=O)c2ccc(C(=O)/C=C/c3ccccc3)cc2)nc(N2CCOCC2)n1 [23a]
Reply: 1.25

Query: Answer briefly: log10(GI50) recorded on UACC-257 for CN(C)c1nc(NCCNS(=O)(=O)c2ccc(C(=O)/C=C/c3ccc(C(F)(F)F)cc3)cc2)nc(N2CCOCC2)n1 [23g]
Reply: 1.18

Query: Answer briefly: log10(GI50) recorded on UACC-257 for CN(C)c1nc(NCCNS(=O)(=O)c2ccc(C3=Nc4c(N)nc(N)nc4NC(c4ccc(Cl)cc4)C3)cc2)nc(Nc2ccc(F)cc2)n1 (centres unmarked) [31e]
Reply: 0.91

Query: Answer briefly: log10(GI50) recorded on UACC-257 for CN(C)c1nc(NCCNS(=O)(=O)c2ccc(C3=Nc4c(N)nc(N)nc4NC(c4ccc(C(F)(F)F)cc4)C3)cc2)nc(Nc2ccc(F)cc2)n1 (centres unmarked) [31g]
Reply: 1.37

Query: Answer briefly: log10(GI50) recorded on UACC-257 for CN(C)c1nc(NCCNS(=O)(=O)c2ccc(C(=O)/C=C/c3ccc(C(F)(F)F)cc3)cc2)nc(Nc2ccc(F)cc2)n1 [24g]
Reply: 1.04

Query: Answer briefly: log10(GI50) recorded on UACC-257 for CN(C)c1nc(NCCNS(=O)(=O)c2ccc(C3=Nc4c(N)nc(N)nc4NC(c4ccc(F)cc4)C3)cc2)nc(Nc2ccc(F)cc2)n1 (centres unmarked) [31f]
Reply: 1.06

Query: Answer briefly: log10(GI50) recorded on UACC-257 for CN(C)c1nc(NCCNS(=O)(=O)c2ccc(C(=O)/C=C/c3ccc(Cl)cc3)cc2)nc(Nc2ccc(F)cc2)n1 [24e]
Reply: 0.92

Query: Answer briefly: log10(GI50) recorded on UACC-257 for COc1cc(/C=C/C(=O)c2ccccc2)ccc1Oc1nc(Nc2ccc(F)cc2)nc(N(C)C)n1 [21a]
Reply: 0.81

Query: Answer briefly: log10(GI50) recorded on UACC-257 for CN(C)c1nc(NCCNS(=O)(=O)c2ccc(C3=Nc4c(N)nc(N)nc4NC(c4ccc(C(F)(F)F)cc4)C3)cc2)nc(N2CCOCC2)n1 (centres unmarked) [30g]
Reply: 1.31

Query: Answer briefly: log10(GI50) recorded on UACC-257 for COc1cc(/C=C/C(=O)c2ccc(S(=O)(=O)NCCNc3nc(N(C)C)nc(N4CCOCC4)n3)cc2)cc(OC)c1OC [23d]
Reply: 0.77

Query: Answer briefly: log10(GI50) recorded on UACC-257 for Cc1ccc(C2CC(c3ccc(S(=O)(=O)NCCNc4nc(Nc5ccc(F)cc5)nc(N(C)C)n4)cc3)=Nc3c(N)nc(N)nc3N2)cc1 (centres unmarked) [31b]
Reply: 1.41

Query: Answer briefly: log10(GI50) recorded on UACC-257 for CN(C)c1nc(NCCNS(=O)(=O)c2ccc(C(=O)/C=C/c3ccc(F)cc3)cc2)nc(Nc2ccc(F)cc2)n1 [24f]
Reply: 0.56

Query: Answer briefly: log10(GI50) recorded on UACC-257 for CN(C)c1nc(NCCNS(=O)(=O)c2ccc(C3=Nc4c(N)nc(N)nc4NC(c4ccccc4)C3)cc2)nc(Nc2ccc(F)cc2)n1 (centres unmarked) [31a]
Reply: 1.94

Query: Answer briefly: log10(GI50) recorded on UACC-257 for CN(C)c1nc(NCCNS(=O)(=O)c2ccc(C(=O)/C=C/c3ccccc3)cc2)nc(Nc2ccc(F)cc2)n1 [24a]
Reply: 1.10

Query: Answer briefly: log10(GI50) recorded on UACC-257 for COc1cc(/C=C/C(=O)c2ccc(C)cc2)ccc1Oc1nc(Nc2ccc(F)cc2)nc(N(C)C)n1 [21b]
Reply: 0.94

Query: Answer briefly: log10(GI50) recorded on UACC-257 for Cc1ccc(C2CC(c3ccc(Nc4nc(NCCO)nc(Nc5ccc(Cl)cc5)n4)cc3)=Nc3c(N)nc(N)nc3N2)cc1 (centres unmarked) [33b]
Reply: 0.26

Query: Answer briefly: log10(GI50) recorded on UACC-257 for CN(C)c1nc(NCCNS(=O)(=O)c2ccc(C(=O)/C=C/c3ccc(F)cc3)cc2)nc(N2CCOCC2)n1 [23f]
Reply: 1.19

Query: Answer briefly: log10(GI50) recorded on UACC-257 for Nc1nc(N)c2c(n1)NC(c1ccc(F)cc1)CC(c1ccc(Nc3nc(NCCO)nc(Nc4ccc(Cl)cc4)n3)cc1)=N2 (centres unmarked) [33f]
Reply: 0.27

Query: Answer briefly: log10(GI50) recorded on UACC-257 for Cc1ccc(/C=C/C(=O)c2ccc(S(=O)(=O)NCCNc3nc(Nc4ccc(F)cc4)nc(N(C)C)n3)cc2)cc1 [24b]
Reply: 1.24

Query: Answer briefly: log10(GI50) recorded on UACC-257 for Nc1nc(N)c2c(n1)NC(c1ccc(Cl)cc1)CC(c1ccc(Nc3nc(NCCO)nc(Nc4ccc(Cl)cc4)n3)cc1)=N2 (centres unmarked) [33e]
Reply: 0.28

Query: Answer briefly: log10(GI50) recorded on UACC-257 for COc1cc(/C=C/C(=O)c2ccc(C)cc2)ccc1Oc1nc(NCCO)nc(N2CCOCC2)n1 [20b]
Reply: 0.60

Query: Answer briefly: log10(GI50) recorded on UACC-257 for COc1cc(/C=C/C(=O)c2ccc(S(=O)(=O)NCCNc3nc(Nc4ccc(F)cc4)nc(N(C)C)n3)cc2)cc(OC)c1OC [24d]
Reply: 1.18

Query: Answer briefly: log10(GI50) recorded on UACC-257 for COc1cc(/C=C/C(=O)c2cc(OC)c(OC)c(OC)c2)ccc1Oc1nc(Nc2ccc(F)cc2)nc(N(C)C)n1 [21d]
Reply: 0.45
